Test system: MCF-7
assay.remarks: MTT cell proliferation assay, MMS alone or with ABT-888
Format: cell-based
measurement.parameters: Homo sapiens, MCF7, MCF-7 breast, PARP1/SNP C/T, MMS alone, 72 h, mean (±SD)
measured.parameter: IC50 (µM)

> print(dat)
                                   molecule  study.system  output.unit  result.value
1  COS(C)(=O)=O [MMS, methyl methanesulfonate]         MCF-7           µM           193

* * *

Test system: A2780
assay.remarks: MTT cell proliferation assay, MMS alone or with ABT-888
Type: cell-based
measurement.parameters: Homo sapiens, A2780 ovarian, PARP1/SNP C/T, MMS alone, 72 h, mean (±SD)
pIC50: −log10 of the molar value.
measured.parameter: pIC50

> print(dat)
                                   compound  study.system  result.value
1  COS(C)(=O)=O [MMS, methyl methanesulfonate]         A2780          3.72

* * *

System: NCI-60 cell lines
assay.remarks: NCI-60 […] IC50 values, cell lines with rs1805407 vs wild type
Format: cell-based
measurement.parameters: NCI60 IC50 values, C/T or C/C (n=23) vs T/T (n=37)
measured.parameter: resistance or sensitivity of cell lines with at least one allele of rs1805407 vs wild type

> print(dat)
                                   compound       study.system          result.value
1  O=P1(N(CCCl)CCCl)NCCCO1 (stereo not shown) [Cyclophosphamide]  NCI-60 cell lines  Increased resistance
2         O=NN(CCCl)C(=O)NCCCl [Carmustine]  NCI-60 cell lines  Increased resistance
